System: Human gammaherpesvirus 4
Test: Antiviral activity against Epstein-Barr virus infected in human akata cells
Type: functional, organism-based
Conditions: human gammaherpesvirus 4, Akata
Would you mind telling me the reported EC50 of each entry?

Requested field: EC50. Item: Nc1ncnc2c1ncn2/C=C1\CC1(CO)CF (stereo not given)
3.4 µM

One more compound: Nc1nc2c(ncn2COCCO)c(=O)[nH]1
1.7 µM

One more compound: Nc1ncnc2c1ncn2/C=C1/CC1(CO)CF (stereo not given)
0.5 µM

One more compound: Nc1nc2c(ncn2/C=C2\CC2(CO)CF)c(=O)[nH]1 (stereo not given)
3.2 µM

One more compound: Nc1nc2c(ncn2/C=C2/CC2(CO)CF)c(=O)[nH]1 (stereo not given)
7.5 µM
